- System: ADR5000 cell line
- Measurement Notes: Cytotoxicity against human CEM/ADR5000 by XTT assay
- Type: functional, cell-based
So I've got a bunch of molecules here, and I need their pIC50 values.
To interpret pIC50, take it as minus log10 of a concentration measured in moles per litre.

stdin: Name the recorded pIC50 for `C[C@@H]1CC[C@H]2[C@@H](C)C(=O)O[C@@H]3O[C@@]4(C)CC[C@@H]1[C@]32OO4` .
stdout: 4.57

stdin: Name the recorded pIC50 for `C=C(C)[C@@H]1CC[C@]2(COC(=O)CCC(=O)O[C@@H]3O[C@@H]4O[C@@]5(C)CC[C@H]6[C@H](C)CC[C@@H]([C@H]3C)[C@@]46OO5)CC[C@]3(C)[C@H](CC[C@@H]4[C@@]5(C)CC[C@H](O)C(C)(C)[C@@H]5CC[C@]43C)[C@@H]12` .
stdout: 4.92

stdin: Name the recorded pIC50 for `C=C(C)[C@@H]1CC[C@]2(CO)CC[C@]3(C)[C@H](CC[C@@H]4[C@@]5(C)CC[C@H](O)C(C)(C)[C@@H]5CC[C@]43C)[C@@H]12` .
stdout: 4.25

stdin: Name the recorded pIC50 for C[C@H]1[C@H](OC(=O)CCC(=O)O)O[C@@H]2O[C@@]3(C)CC[C@H]4[C@H](C)CC[C@@H]1[C@@]24OO3 [ARTESUNATE] .
stdout: 5.92

stdin: Name the recorded pIC50 for `C[C@H]1[C@H](OC(=O)CCC(=O)NCCCNC(=O)CCC(=O)O[C@@H]2O[C@@H]3O[C@@]4(C)CC[C@H]5[C@H](C)CC[C@@H]([C@H]2C)[C@@]35OO4)O[C@@H]2O[C@@]3(C)CC[C@H]4[C@H](C)CC[C@@H]1[C@@]24OO3` .
stdout: 6.70

Attribution: ChEMBL document CHEMBL1177721
